Source: patent US20070170056A1

# Format: physicochemical
# experimental context: vs Pt reference electrode; mobile phase 50 mM LiClO4 in 50:50 water/ACN; porous graphitic working electrode

compound: Oc1ccccc1Cl [2-chlorophenol]
unit tag: mV
E1/2: 139
--
compound: Cc1ccc(O)c(C)c1 [2,4-dimethylphenol]
unit tag: mV
E1/2: 304
--
compound: Oc1ccc(Cl)cc1Cl [2,4-dichlorophenol]
unit tag: mV
E1/2: 305
--
compound: Oc1ccccc1 [phenol]
unit tag: mV
E1/2: 336
--
compound: Cc1cc(O)ccc1Cl [4-chloro-3-methylphenol]
unit tag: mV
E1/2: 314
